src = ChEMBL document CHEMBL1201862

- Tested on: UACC-257
- assay.remarks: NCI tumour cell line growth inhibition, 48 h
Calls of active or inactive are those of the source. Rule as the data show it: active = GI50 up to about 1.1 µM and inactive = higher.
A correct response names exactly one class from 1.0 for active, 0.0 for inactive

Hey, what did the test say about C=C=C[P+](c1ccccc1)(c1ccccc1)c1ccccc1 ?
0.0

Hey, what did the test say about NC(=O)NNC/C(Cl)=C(\Cl)C(=O)O ?
0.0

Hey, what did the test say about CCOC(=O)c1cc(/C=C/C(C)=C/C(=O)OC)n(C)c1C ?
0.0

Hey, what did the test say about O=S(=O)(O)c1ccc2c(/N=N/c3ccccc3)c(O)ccc2c1 ?
0.0

Hey, what did the test say about O=c1cc(-c2ccncc2)[nH]c2cc3c(cc12)OCO3 ?
0.0

Hey, what did the test say about NC(=S)N/N=C1\CCCC1C(O)(C(F)(F)Cl)C(F)(F)Cl (centres undefined) ?
0.0

Hey, what did the test say about O=C(O)C1Cc2ccccc2OC1=O (centres undefined) ?
0.0

Hey, what did the test say about CSCCCNC(=O)c1csc([C@@H](CSC)NC(=O)CCNC(=O)[C@@H](NC(=O)OCC(Br)(Br)Br)C(C)O)n1 (some centres undefined) ?
0.0

Hey, what did the test say about Cc1ccc(NC(=O)CC2SC(Nc3ccc(Cl)cc3)=NC2=O)cc1C (centres undefined) ?
0.0

Hey, what did the test say about CC(C)COC(c1ccc2c(c1)OCO2)C(C)Br (centres undefined) ?
0.0

Hey, what did the test say about COc1ccc2c3c1OC1C(F)C=CC4(O)C(C2)NCCC314 (centres undefined) ?
0.0

Hey, what did the test say about CC(=O)c1cc(CC2Cc3cc4c(cc3C2=O)CCC4)cc2c1CCC2 (centres undefined) ?
0.0

Hey, what did the test say about CCOC(=O)/C=C(\C(=O)OCC)n1ccc(N)nc1=O ?
0.0

Hey, what did the test say about Oc1ccc(-c2nc3cc(C(F)(F)F)ccc3s2)cc1 ?
0.0

Hey, what did the test say about O=[N+]([O-])c1cccc2nc3ccccc3c(NCCNCCO)c12 ?
1.0

Hey, what did the test say about CC(C)(C)N1NC1C1NN1C(C)(C)C (centres undefined) ?
0.0

Hey, what did the test say about O=C(c1ccccc1)c1ccc2nc3n(c2c1)C(c1c(Cl)cccc1Cl)SC3 (centres undefined) ?
0.0

Hey, what did the test say about CC(=O)OCC(OC(C)=O)C1C[C@H]2O[C@@H]3[C@H](C[C@H]2O1)O[C@@]1(C[C@@H]3C)C[C@H](C)[C@@H]2O[C@]3(C[C@@H]2O1)C[C@H]1O[C@H]2[C@H](C)[C@H]4OC(=O)CC5CC[C@H]6OC7[C@H]8O[C@]9(CC[C@H]%10CC(O)(CO)[C@H](CC[C@H]%11C[C@@H](C)C(O)(CO)C(C[C@@H]4O[C@H]2C[C@H]1O3)O%11)O%10)CC8O[C@@H]7[C@@H](O9)[C@H]6O5 (some centres undefined) ?
1.0

Hey, what did the test say about CCCCCCCCCCCCCP(=O)(OC)OC ?
0.0

Hey, what did the test say about O=P(Oc1ccccc1)(Oc1ccccc1)Oc1c[nH]c2ccccc12 ?
0.0

Hey, what did the test say about N=c1oc2ccc3ccccc3c2cc1C(N)=O ?
0.0

Hey, what did the test say about COc1cc2c(c(OC)c1)C(C)=NC(C)C2 (centres undefined) ?
0.0

Hey, what did the test say about O=[N+]([O-])c1ccc(-c2nc3cc([N+](=O)[O-])ccc3[nH]2)cc1 ?
0.0

Hey, what did the test say about O=C(O)C1(C(O)c2ccccc2)SCCCS1 (centres undefined) ?
0.0

====

- Tested on: HT-29
- assay.remarks: NCI tumour cell line growth inhibition, 48 h
Active and inactive are the calls of the source. Rule as the data show it: active = GI50 up to about 1.1 µM and inactive = higher.
Task for the reader: assign each of the following compounds its reported GI50.

Note down GI50 recorded for O=[N+]([O-])C1C2C=CC(C2)[C@H]1c1ccccc1Cl (stereo partly drawn)
99.8 µM (inactive)

Note down GI50 recorded for C[N+]1(C)C2CC(OC(=O)C(CO)c3ccccc3)CC1C1OC12 (stereo not drawn)
> 100 µM (inactive)

Note down GI50 recorded for CC(C)(C)c1cc(C(=O)O)c(C(c2ccccc2)c2ccccc2C(=O)O)c(C(=O)O)c1 (stereo not drawn)
> 100 µM (inactive)

====

- Test system: SR
- assay.remarks: NCI tumour cell line growth inhibition, 48 h
Calls of active or inactive are those of the source. Rule as the data show it: active = GI50 up to about 1.1 µM and inactive = higher.
A correct response names exactly one class from yes (active), no (inactive)

Hey, what did the test say about COc1ccc(NC(=O)N(C)CC2(O)CCC(C(C)(C)C)CC2)cc1 (stereo not drawn) ?
no

Hey, what did the test say about CC(C)=CC[C@H]1C[C@]2(CC=C(C)C)C(=O)[C@@](CC=C(C)C)(C(=O)C(C(=O)c3ccccc3)=C2O)C1(C)C [6-EPI-CLUSIANONE] ?
no

Hey, what did the test say about Cc1nc2ccncc2[nH]1 ?
no

Hey, what did the test say about Cc1cc(NC(=S)SCc2ccc(F)cc2)c([N+](=O)[O-])cc1C ?
no

Hey, what did the test say about NC(=O)CO/N=C1/C(=C2/C(=O)Nc3ccccc32)Nc2ccccc21 ?
yes

Hey, what did the test say about Cc1nc(C(N)=S)sc1C(=O)CC(=O)C(=O)Nc1ccccc1[N+](=O)[O-] ?
no

Hey, what did the test say about COc1ccc2c3c1OC1C(F)C=CC4(O)C(C2)NCCC314 (stereo not drawn) ?
yes

Hey, what did the test say about CCOC(=O)C(C(=O)OCC)=C1N[C@H](C(=O)OCC)CS1 ?
no

Hey, what did the test say about O=C(O)c1ccc(Cc2ccccc2C(=O)O)cc1 ?
no

Hey, what did the test say about COC(C(O)CO)C(O)C(O)C(=O)NNc1ccccc1 (stereo not drawn) ?
no

Hey, what did the test say about CC(C)c1nc(Cl)c(Cl)c(Cl)n1 ?
yes

Hey, what did the test say about c1ccc2c(c1)SCCCSCCSCCCS2 ?
no

Hey, what did the test say about CC12CC[C@H](O)C(C)(C)[C@H]1CC[C@](C)(O)C2COc1ccc2ccc(=O)oc2c1 (stereo partly drawn) ?
no

Hey, what did the test say about Cc1ccc(C(=O)O)c(/C=C2\Cc3cc(C)cc(C)c3C2=O)c1 ?
no

Hey, what did the test say about CC1(c2ccccc2)CC(c2ccccc2)=NO1 (stereo not drawn) ?
no

Hey, what did the test say about Cn1cc[n+](-c2cc(=O)n(C)c(=O)[n-]2)c1 ?
no

Hey, what did the test say about C[N+]1(C)C/C(=C\C=C\c2ccccc2)C(=O)/C(=C/C=C/c2ccccc2)C1 ?
no

Hey, what did the test say about c1ccc(-c2nnn(CCN3CCCCC3)n2)cc1 ?
no

Hey, what did the test say about CSC(=O)c1sc(SC)[n+](-c2ccccc2)c1O ?
no

Hey, what did the test say about CCCc1c(O)c(=O)c2c(OC)cc(OC)c3c4c(OC)cc(OC)c5c(=O)c(O)c(CCC)c(c1c23)c54 ?
yes

Hey, what did the test say about O=C(O)CCSC(=O)Nc1ccccc1Cl ?
no

Hey, what did the test say about Nc1ccc(C(=O)N/C(=C\c2cccc([N+](=O)[O-])c2)c2nc3ccccc3[nH]2)cc1 ?
no

Hey, what did the test say about CC(C)C(N)=O [ISOBUTYRAMIDE] ?
no

====

- Test system: MDA-MB-231
- assay.remarks: NCI tumour cell line growth inhibition, 48 h
Active and inactive are the calls of the source. No stated cut-off is given here; in the data, active = GI50 up to about 1.1 µM and inactive = higher.
A correct response names exactly one class from active, inactive

Hey, what did the test say about C=C1c2ccccc2Oc2nc3nc(N)c(C#N)c(N)c3c(N)c21 ?
inactive

Hey, what did the test say about O=C1CC(=O)c2c(O)cc(O)c(c2O)-c2c(ccc(O)c2O)C2=CC(=O)c3c(O)cc(O)c(c3O2)-c2c1ccc(O)c2O.O=C1CC2(O)Oc3c1c(O)cc(O)c3-c1c(ccc(O)c1O)-c1cc(=O)c3c(O)cc(O)c(c3o1)-c1c2ccc(O)c1O ?
inactive

Hey, what did the test say about Cc1ccc(/C=C2\CCS(=O)(=O)c3ccccc3C2=O)cc1 ?
inactive

Hey, what did the test say about CC(=O)Oc1ccc2c(-c3ccccc3)c(Oc3ccc(Cl)cc3)c(=O)oc2c1 ?
inactive

Hey, what did the test say about O=S(=O)(c1ccccc1)[C@H]1[C@@H]2O[C@@H]2C[C@@H]1O ?
inactive

Hey, what did the test say about COC(=O)C/N=C1\NC(=S)N(Cc2ccc(OC)cc2)C12CCCC2 ?
inactive

Hey, what did the test say about CC(=O)c1cc(CC2Cc3cc4c(cc3C2=O)CCC4)cc2c1CCC2 (stereo unspecified) ?
inactive

Hey, what did the test say about CSc1ncnc2c1cnn2CCCCO ?
inactive

Hey, what did the test say about CCCc1c(O)c(=O)c2c(OC)cc(OC)c3c4c(OC)cc(OC)c5c(=O)c(O)c(CCC)c(c1c23)c54 ?
inactive

Hey, what did the test say about Cc1ccc(N2C=Nn3c(nc4sc5c(c4c3=O)CCCC5)C2)cc1 ?
inactive

Hey, what did the test say about Cc1ccc(C(=O)O)c(/C=C2\Cc3cc(C)cc(C)c3C2=O)c1 ?
inactive

Hey, what did the test say about COC1C(O)=C2C(=O)O/C(C)=C/C=C/C=C/C=C\CC(c3ccccc3)NC(=O)\C=C/C=C\C=C\C=C\[C@@]2(C)[C@@H]1O (stereo partly specified) ?
active

Hey, what did the test say about CCOC(=O)c1nc2cc(C(F)(F)F)ccc2nc1Nc1ccc(Cl)c(Cl)c1 ?
inactive

Hey, what did the test say about CC(=O)OCC1OC(N2C(=O)NC(=O)C3C=C4CCCCC4=CC32)C(OC(C)=O)C1OC(C)=O (stereo unspecified) ?
inactive

Hey, what did the test say about Clc1ccc(C(SCc2ccccc2)SCc2ccccc2)cc1 ?
inactive

Hey, what did the test say about O=S1(=O)OC(c2ccc(O)cc2)(c2ccc(O)cc2)c2ccccc21 ?
inactive
